FYI, the data here is from ChEMBL document CHEMBL4689842.

# Growth Rate listing for each entry below
- System: Fibroblast
- test_description: Incucyte cell viability with human fibroblast; note: filed as whole numbers so only -1 and 0 and 1 occur
- Format: toxicity, cell-based
- details: 6 h, 10 µM, compound concentration 10 uM, replicate number 1, timepoint 6 hours
readout_label: Growth Rate

[[record]]
molecule = "CC(C)(O)c1cncc(-c2nc3ccc(F)cc3n2C2CC2)c1"
readout_label = "Growth Rate"
result = 1

[[record]]
molecule = "CC1=C2C[C@H]3[C@@H](CC=C4C[C@@H](O)CC[C@@]43C)[C@@H]2CC[C@]12O[C@@H]1C[C@H](C)CN[C@H]1[C@H]2C"
readout_label = "Growth Rate"
result = 1

[[record]]
molecule = "COc1ncc(F)cc1CNc1ccc(Cc2c[nH]c3ncc(C)cc23)c(F)n1"
readout_label = "Growth Rate"
result = 1

[[record]]
molecule = "CC[C@@H]1CN(C(=O)NCC(F)(F)F)C[C@@H]1c1cnc2cnc3[nH]ccc3n12"
readout_label = "Growth Rate"
result = 1

[[record]]
molecule = "CNC(=O)Nc1ccc2c(c1)CC[C@@]21OC(=O)N(CC(=O)N(Cc2ccc(F)cc2)[C@@H](C)C(F)(F)F)C1=O"
readout_label = "Growth Rate"
result = 0

[[record]]
molecule = "C[C@H](NC(=O)Nc1cc2[nH]ncc2c(CO)n1)c1ccccn1"
readout_label = "Growth Rate"
result = 0

[[record]]
molecule = "Oc1cccc(-c2nc(N3CCOCC3)c3oc4ncccc4c3n2)c1"
readout_label = "Growth Rate"
result = 0

[[record]]
molecule = "CC(C)[C@H](CO)Nc1nc(Nc2cccc(Cl)c2)c2ncn(C(C)C)c2n1"
readout_label = "Growth Rate"
result = 0

[[record]]
molecule = "CCN(CCO)CCCOc1ccc2c(Nc3cc(CC(=O)Nc4cccc(F)c4)[nH]n3)ncnc2c1"
readout_label = "Growth Rate"
result = 0

[[record]]
molecule = "Cc1c(Nc2ccc(S(=O)(=O)N3CCN(C)CC3)cc2F)nc2ccc(Nc3cnn(C4CC4)c3)cn2c1=O"
readout_label = "Growth Rate"
result = 0

[[record]]
molecule = "CN(C)CCCN1c2ccccc2CCc2ccccc21.Cl [IMIPRAMINE HYDROCHLORIDE]"
readout_label = "Growth Rate"
result = 0

[[record]]
molecule = "Cc1c(P(=S)(c2ccccc2)c2ccccc2)n2ccccc2[n+]1C/C=C/c1ccccc1.[Br-]"
readout_label = "Growth Rate"
result = 0

[[record]]
molecule = "N#CC1(c2ccccn2)CCN(Cc2cc(C(=O)O)c(=O)n3ccccc23)CC1"
readout_label = "Growth Rate"
result = 0

[[record]]
molecule = "CCN(Cc1ccc(Cl)cc1)c1ncc(C(=O)NCCCN2CCCC2=O)c(NC2CCCC2)n1"
readout_label = "Growth Rate"
result = 1

[[record]]
molecule = "COc1cc(Nc2ccnc3ccc(Br)cc23)cc(OC)c1OC"
readout_label = "Growth Rate"
result = 0

[[record]]
molecule = "O=C1c2ccc(Nc3ccc(F)cc3F)cc2CCc2ccc(OC[C@H](O)CO)cc21 [Skepinone-L]"
readout_label = "Growth Rate"
result = 0

[[record]]
molecule = "COc1ccccc1-c1cc(Nc2cccc(CS(N)(=O)=O)c2)ncn1"
readout_label = "Growth Rate"
result = 0

